# Procedure Text: Lipophilicity, logD of compound at pH 7.4
# Assay type: physicochemical
# Condition Label: buffer
Quantity: logD

Answered examples (2):
>  <Item Smiles>
CC[C@H](C)[C@@H](NC(=O)[C@@H](NC(=O)[C@H](CCC(=O)O)NC(=O)[C@H](Cc1ccccc1)NC(=O)[C@@H](CCN)NC(=O)[C@H](CCN)NC(=O)[C@H](CO)NC(=O)[C@@H](Cc1c[nH]c2ccccc12)NC(=O)[C@@H](CO)NC(=O)CNC(=O)[C@@H](CCN)NC(=O)[C@H](NC(=O)[C@H](C)N)C(C)C)C(C)C)C(=O)N[C@@H](C)C(=O)O

>  <Recorded Result>
1.36

$$$$
>  <Item Smiles>
CCCCCCCC(=O)N[C@@H](C(=O)N[C@H](CCN)C(=O)NCC(=O)N[C@H](CO)C(=O)N[C@H](Cc1c[nH]c2ccccc12)C(=O)N[C@@H](CO)C(=O)N[C@@H](CCN)C(=O)N[C@H](CCN)C(=O)N[C@@H](Cc1ccccc1)C(=O)N[C@@H](CCC(=O)O)C(=O)N[C@H](C(=O)N[C@@H](C(=O)N[C@@H](C)C(=O)O)[C@@H](C)CC)C(C)C)C(C)C

>  <Recorded Result>
2.24

$$$$

Next compound, please.
Query: What value of logD has been recorded for this entry: CC[C@H](C)[C@@H](NC(=O)[C@@H](NC(=O)[C@H](CCC(=O)O)NC(=O)[C@H](Cc1ccccc1)NC(=O)[C@@H](CCN)NC(=O)[C@H](CCN)NC(=O)[C@H](CO)NC(=O)[C@@H](Cc1c[nH]c2ccccc12)NC(=O)[C@@H](CO)NC(=O)CNC(=O)[C@@H](CCN)NC(=O)[C@H](N)C(C)C)C(C)C)C(=O)N[C@@H](C)C(=O)O
Reply: 1.09

----------
Reported values of MeCN percentage at peak elution for individual entries
# Procedure Text: Hydrophobicity of compound assessed as %MeCN at peak elution by RP-HPLC analysis
# Type: physicochemical
// note: answer is a bare numeric in %

Answered examples (3):
>  <Item Smiles>
CC[C@H](N)C(=O)N[C@@H](C(=O)N[C@H](CCN)C(=O)NCC(=O)N[C@H](CO)C(=O)N[C@H](Cc1c[nH]c2ccccc12)C(=O)N[C@@H](CO)C(=O)N[C@@H](CCN)C(=O)N[C@H](CCN)C(=O)N[C@@H](Cc1ccccc1)C(=O)N[C@@H](CCC(=O)O)C(=O)N[C@H](C(=O)N[C@@H](C(=O)N[C@@H](C)C(=O)O)[C@@H](C)CC)C(C)C)C(C)C

>  <MeCN percentage at peak elution, %>
40.7

$$$$
>  <Item Smiles>
CC[C@H](C)[C@@H](NC(=O)[C@@H](NC(=O)[C@H](CCC(=O)O)NC(=O)[C@H](Cc1ccccc1)NC(=O)[C@@H](CCN)NC(=O)[C@H](CCN)NC(=O)[C@H](CO)NC(=O)[C@@H](Cc1c[nH]c2ccccc12)NC(=O)[C@@H](CO)NC(=O)CNC(=O)[C@@H](CCN)NC(=O)[C@H](NC(=O)CCCCCN)C(C)C)C(C)C)C(=O)N[C@@H](C)C(=O)O

>  <MeCN percentage at peak elution, %>
40.1

$$$$
>  <Item Smiles>
CC[C@H](C)[C@@H](NC(=O)[C@@H](NC(=O)[C@H](CCC(=O)O)NC(=O)[C@H](Cc1ccccc1)NC(=O)[C@@H](CCN)NC(=O)[C@H](CCN)NC(=O)[C@H](CO)NC(=O)[C@@H](Cc1c[nH]c2ccccc12)NC(=O)[C@@H](CO)NC(=O)CNC(=O)[C@@H](CCN)NC(=O)[C@H](NC(=O)[C@H](C)N)C(C)C)C(C)C)C(=O)N[C@@H](C)C(=O)O

>  <MeCN percentage at peak elution, %>
40.3

$$$$

Query: What value of MeCN percentage at peak elution has been recorded for this entry: CC[C@H](C)[C@@H](NC(=O)[C@@H](NC(=O)[C@H](C)NC(=O)[C@H](Cc1ccccc1)NC(=O)[C@@H](CCN)NC(=O)[C@H](CCN)NC(=O)[C@H](CO)NC(=O)[C@@H](Cc1c[nH]c2ccccc12)NC(=O)[C@@H](CO)NC(=O)CNC(=O)[C@@H](CCN)NC(=O)[C@H](NC(=O)[C@H](C)N)C(C)C)C(C)C)C(=O)N[C@@H](C)C(=O)O
Reply: 40.1

Query: What value of MeCN percentage at peak elution has been recorded for this entry: CC[C@H](C)[C@@H](NC(=O)[C@@H](NC(=O)[C@H](CCC(=O)O)NC(=O)[C@H](Cc1ccccc1)NC(=O)[C@@H](CCN)NC(=O)[C@H](CCN)NC(=O)[C@H](CO)NC(=O)[C@@H](Cc1c[nH]c2ccccc12)NC(=O)[C@@H](CO)NC(=O)CNC(=O)[C@@H](CCN)NC(=O)[C@H](N)C(C)C)C(C)C)C(=O)N[C@@H](C)C(=O)O
Reply: 42

Query: What value of MeCN percentage at peak elution has been recorded for this entry: CC[C@H](C)[C@@H](NC(=O)[C@@H](NC(=O)[C@H](CCC(=O)O)NC(=O)[C@H](Cc1ccccc1)NC(=O)[C@@H](CCN)NC(=O)[C@H](CCN)NC(=O)[C@H](CO)NC(=O)[C@@H](Cc1c[nH]c2ccccc12)NC(=O)[C@@H](CO)NC(=O)CNC(=O)[C@@H](CCN)NC(=O)[C@H](NC(=O)CCN)C(C)C)C(C)C)C(=O)N[C@@H](C)C(=O)O
Reply: 39.8

Query: What value of MeCN percentage at peak elution has been recorded for this entry: CC[C@H](C)[C@@H](NC(=O)[C@@H](NC(=O)[C@H](CCC(=O)O)NC(=O)[C@H](Cc1ccccc1)NC(=O)[C@@H](C)NC(=O)[C@H](CCN)NC(=O)[C@H](CO)NC(=O)[C@@H](Cc1c[nH]c2ccccc12)NC(=O)[C@@H](CO)NC(=O)CNC(=O)[C@@H](CCN)NC(=O)[C@H](NC(=O)[C@H](C)N)C(C)C)C(C)C)C(=O)N[C@@H](C)C(=O)O
Reply: 45.9

Query: What value of MeCN percentage at peak elution has been recorded for this entry: CC[C@H](C)[C@@H](NC(=O)[C@@H](NC(=O)[C@H](CCC(=O)O)NC(=O)[C@H](Cc1ccccc1)NC(=O)[C@@H](CCN)NC(=O)[C@H](CCN)NC(=O)[C@H](CO)NC(=O)[C@@H](Cc1c[nH]c2ccccc12)NC(=O)[C@@H](CO)NC(=O)CNC(=O)[C@@H](CCN)NC(=O)[C@H](NC(=O)[C@H](C)N)C(C)C)C(C)(C)C)C(=O)N[C@@H](C)C(N)=O
Reply: 41.8

Query: What value of MeCN percentage at peak elution has been recorded for this entry: CC[C@H](C)[C@@H](NC(=O)[C@H](CC1CCCCC1)NC(=O)[C@H](CCC(=O)O)NC(=O)[C@H](Cc1ccccc1)NC(=O)[C@@H](CCN)NC(=O)[C@H](CCN)NC(=O)[C@H](CO)NC(=O)[C@@H](Cc1c[nH]c2ccccc12)NC(=O)[C@@H](CO)NC(=O)CNC(=O)[C@@H](CCN)NC(=O)[C@H](N)C(C)C)C(=O)N[C@@H](C)C(=O)O
Reply: 43.9

Query: What value of MeCN percentage at peak elution has been recorded for this entry: CC[C@H](C)[C@@H](NC(=O)[C@@H](NC(=O)[C@H](CCC(=O)O)NC(=O)[C@H](Cc1ccccc1)NC(=O)[C@@H](CCN)NC(=O)[C@H](CCN)NC(=O)[C@H](CO)NC(=O)[C@@H](Cc1c[nH]c2ccccc12)NC(=O)[C@@H](CO)NC(=O)[C@H](CC(=O)O)NC(=O)[C@@H](CCN)NC(=O)[C@H](N)C(C)C)C(C)C)C(=O)N[C@@H](C)C(=O)O
Reply: 37.8

Query: What value of MeCN percentage at peak elution has been recorded for this entry: CC(C)[C@H](NC(=O)[C@H](CCC(=O)O)NC(=O)[C@H](Cc1ccccc1)NC(=O)[C@@H](CCN)NC(=O)[C@H](CCN)NC(=O)[C@H](CO)NC(=O)[C@@H](Cc1c[nH]c2ccccc12)NC(=O)[C@@H](CO)NC(=O)CNC(=O)[C@@H](CCN)NC(=O)[C@H](NC(=O)[C@H](C)N)C(C)C)C(=O)N[C@H](C)C(=O)N[C@@H](C)C(=O)O
Reply: 37.7
